The reported measurements were obtained from ChEMBL document CHEMBL1143692.

Tested on: prostate-specific antigen
procedure.summary: Half life in Tris buffer at pH 7.8, 37 degC for 48 hrs in presence of prostate-specific antigen at 100 uM
Format: ADME, Prostate gland
conditions.used: Tris buffer with prostate-specific antigen
half-life at 100 µM reference
Answer format: numeric, h implied, no suffix.

The compound identified as CC(=O)O[C@H]1C(=O)[C@]2(C)[C@@H](OC(=O)OCc3ccc(NC(=O)[C@H](CCC(N)=O)NC(=O)[C@H](CC(C)C)NC(=O)[C@H](CCCCN)NC(=O)[C@H](CO)NC(=O)[C@H](CO)NC(=O)[C@H](Cc4c[nH]cn4)NC(=O)N4CCOCC4)cc3)C[C@@H]3OC[C@]3(OC(C)=O)[C@@H]2[C@H](OC(=O)c2ccccc2)[C@]2(O)C[C@@H](OC(=O)[C@H](O)[C@@H](NC(=O)c3ccccc3)c3ccccc3)C(C)=C1C2(C)C registered its half-life at 100 µM at 14

The compound identified as CC(=O)O[C@H]1C(=O)[C@]2(C)[C@@H](O)C[C@@H]3OC[C@]3(OC(C)=O)[C@@H]2[C@H](OC(=O)c2ccccc2)[C@]2(O)C[C@@H](OC(=O)[C@H](OC(=O)N(C)CCNC(=O)[C@H](CCC(N)=O)NC(=O)[C@H](CC(C)C)NC(=O)[C@H](CCCCN)NC(=O)[C@H](CO)NC(=O)[C@H](CO)NC(=O)[C@H](Cc3c[nH]cn3)NC(=O)N3CCOCC3)[C@@H](NC(=O)c3ccccc3)c3ccccc3)C(C)=C1C2(C)C registered its half-life at 100 µM at 10

The compound identified as CC(=O)O[C@H]1C(=O)[C@]2(C)[C@@H](O)C[C@@H]3OC[C@]3(OC(C)=O)[C@@H]2[C@H](OC(=O)c2ccccc2)[C@]2(O)C[C@@H](OC(=O)[C@H](OC(=O)N(C)CCNC(=O)[C@H](CCC(N)=O)NC(=O)[C@H](Cc3ccc(O)cc3)NC(=O)[C@H](CCCCN)NC(=O)[C@H](CO)NC(=O)[C@H](CO)NC(=O)N3CCOCC3)[C@@H](NC(=O)c3ccccc3)c3ccccc3)C(C)=C1C2(C)C registered its half-life at 100 µM at 6

Next item in the queue.
The compound identified as CC(=O)O[C@H]1C(=O)[C@]2(C)[C@@H](O)C[C@@H]3OC[C@]3(OC(C)=O)[C@@H]2[C@H](OC(=O)c2ccccc2)[C@]2(O)C[C@@H](OC(=O)[C@H](OC(=O)OCc3ccc(NC(=O)[C@H](CCC(N)=O)NC(=O)[C@H](CC(C)C)NC(=O)[C@H](CCCCN)NC(=O)[C@H](CO)NC(=O)[C@H](CO)NC(=O)[C@H](Cc4c[nH]cn4)NC(=O)N4CCOCC4)cc3)[C@@H](NC(=O)c3ccccc3)c3ccccc3)C(C)=C1C2(C)C registered its half-life at 100 µM at 12

* * *

procedure.summary: Half life in serum at 100 uM after 48 hrs at 37 degC
Type: ADME, cell-free
conditions.used: human
measured.attribute: half-life at 100 µM (h)
Answer format: numeric, h implied, no suffix.

The compound identified as CC(=O)O[C@H]1C(=O)[C@]2(C)[C@@H](OC(=O)OCc3ccc(NC(=O)[C@H](CCC(N)=O)NC(=O)[C@H](CC(C)C)NC(=O)[C@H](CCCCN)NC(=O)[C@H](CO)NC(=O)[C@H](CO)NC(=O)[C@H](Cc4c[nH]cn4)NC(=O)N4CCOCC4)cc3)C[C@@H]3OC[C@]3(OC(C)=O)[C@@H]2[C@H](OC(=O)c2ccccc2)[C@]2(O)C[C@@H](OC(=O)[C@H](O)[C@@H](NC(=O)c3ccccc3)c3ccccc3)C(C)=C1C2(C)C registered its half-life at 100 µM at 1.5

The compound identified as CC(=O)O[C@H]1C(=O)[C@]2(C)[C@@H](O)C[C@@H]3OC[C@]3(OC(C)=O)[C@@H]2[C@H](OC(=O)c2ccccc2)[C@]2(O)C[C@@H](OC(=O)[C@H](OC(=O)OCc3ccc(NC(=O)[C@H](CCC(N)=O)NC(=O)[C@H](CC(C)C)NC(=O)[C@H](CCCCN)NC(=O)[C@H](CO)NC(=O)[C@H](CO)NC(=O)[C@H](Cc4c[nH]cn4)NC(=O)N4CCOCC4)cc3)[C@@H](NC(=O)c3ccccc3)c3ccccc3)C(C)=C1C2(C)C registered its half-life at 100 µM at 1
